Molecular target: Endothelin-1 receptor (Rattus norvegicus, UniProt P26684)
Sequence (P26684 whole entry): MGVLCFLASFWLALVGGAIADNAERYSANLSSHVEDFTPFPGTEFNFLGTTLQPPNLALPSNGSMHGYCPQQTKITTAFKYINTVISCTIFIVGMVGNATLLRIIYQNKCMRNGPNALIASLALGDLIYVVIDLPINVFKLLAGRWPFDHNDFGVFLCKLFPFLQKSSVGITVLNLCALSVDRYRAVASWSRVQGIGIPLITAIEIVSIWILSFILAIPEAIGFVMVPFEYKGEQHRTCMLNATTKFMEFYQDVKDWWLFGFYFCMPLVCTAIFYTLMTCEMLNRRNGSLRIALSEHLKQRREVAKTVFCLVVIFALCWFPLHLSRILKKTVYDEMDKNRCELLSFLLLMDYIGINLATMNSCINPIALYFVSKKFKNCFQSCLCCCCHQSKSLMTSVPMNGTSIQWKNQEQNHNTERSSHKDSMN
Test: Binding affinity for endothelin A receptor by measuring its ability to displace [125I]ET1 from prolactin secreting rat pituitary cells(MMQ)

chemical-string | IC50 / nM
C/C=C\CC[C@H]1[C@H](C(=O)O)[C@@H](c2ccc3c(c2)OCO3)CN1CC(=O)N(CCCC)CCCC | 0.78
C/C=C\C(C)(C)C[C@H]1[C@H](C(=O)O)[C@@H](c2cc(OC)c3c(c2)OCO3)CN1CC(=O)N(CCCC)CCCC | 0.41
CCCCN(CCCC)C(=O)CN1C[C@H](c2ccc3c(c2)OCO3)[C@@H](C(=O)O)[C@@H]1CCC1SCCS1 | 4.5
CCCCN(CCCC)C(=O)CN1C[C@H](c2ccc3c(c2)OCO3)[C@@H](C(=O)O)[C@@H]1CCC1OCCO1 | 2.3
